Target: human PTGES (Homo sapiens (Human), UniProt O14684)
Sequence (O14684 whole entry): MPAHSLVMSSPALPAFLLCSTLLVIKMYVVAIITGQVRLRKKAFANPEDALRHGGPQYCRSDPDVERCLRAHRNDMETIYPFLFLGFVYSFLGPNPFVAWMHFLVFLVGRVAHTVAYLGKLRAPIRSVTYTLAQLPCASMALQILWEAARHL
Assay: Human PTGES biochemical enzyme inhibition assay (conversion of PGH2 to PGE2, TR-FRET)
Details: Enzymatic conversion of PGH2 to PGE2; read-out: Human PTGES IC50
measure_name: pIC50
The value called pIC50 is obtained by taking minus log10 of the concentration in mol/L.

-- ask Report pIC50 for "Cc1ncc(-c2ccc([C@H](C(=O)Nc3cccc(CCC(=O)O)c3C)C3CCCC3)cc2)cc1C(F)(F)F" please.
-- reply 7.87

-- ask Report pIC50 for Cc1c(CCC(=O)O)cccc1NC(=O)C(c1ccc(-c2cncc(Cl)c2)cc1)C1CC1 (racemic) please.
-- reply 6.35

-- ask Report pIC50 for CCOc1cncc(-c2ccc(C(C(=O)Nc3cccc(C(CC)CC(=O)O)c3C)C3CCCC3)cc2)c1 (mixture of isomers) please.
-- reply 6.97

-- ask Report pIC50 for Cc1c(CCC(=O)O)cccc1NC(=O)C(c1ccc(-c2cncc(C(F)(F)F)c2)cc1)C1CC1 (racemic) please.
-- reply 6.33
